Test system: Trypomastigotes of T. cruzi (Dm28c-Luc)
Test: microbe, parasite or virus in culture
Type: cell-based, Trypanosoma cruzi
Details: Trypanosoma cruzi; Dm28c-Luc, 24 h treatment; read-out: Anti-T. cruzi Activity Trypomastigotes IC90
Reported values of IC90 for individual entries

Bench note: what IC90 did Nc1nnc(-c2cnn(-c3cccc(Cl)c3)c2)s1 show?
> 100 µM

***
Look up IC90 for this compound: Nc1nnc(-c2cnn(-c3ccc(Cl)c(Cl)c3)c2N)s1
> 100 µM

Fill in: IC90 of Nc1nnc(-c2cnn(-c3cccc(Br)c3)c2)s1 is ___
> 100 µM
